Data origin, for the record: patent US20150023989A1

For each record, write down the corresponding Papp B→A at 2 h.
Test: Flux assay using Caco-2 cells (cell permeability)
Format: in vitro ADME
Conditions: human, 2 hours incubation
Structures can show the parent of a compound that is named as a salt. Where a SMILES comes first, the peptide text is derived from it. [ ]: non-standard residue; d: D form. The star is where a group is joined. X2 = CC(C)[C@@H](C(=O)*)N(C)CCCCCCN1C(=O)CC(SC[C@H](N)C(=O)O)C1=O; X1 = CC(C)[C@@H](C(=O)*)N(C)CCCCCC(=O)NCCCC[C@H](N)C(=O)O; Dolaproine = CO[C@@H]([C@@H]1CCCN1)[C@@H](C)C(=O)O; Dil = CC[C@H](C)[C@H](NC)[C@@H](CC(=O)O)OC; Oxazinan2yl(1,2) = C1CCN(*)OC1
Could you give me the number in nm/s? Just the number is fine.

Which Papp B→A at 2 h value belongs to CC[C@H](C)[C@@H]([C@@H](CC(=O)N1CCC[C@H]1[C@H](OC)[C@@H](C)C(=O)N[C@@H](Cc1c[nH]c2ccccc12)C(=O)O)OC)N(C)C(=O)[C@@H](NC(=O)[C@H](C(C)C)N(C)CCCCCCN1C(=O)CC(SC[C@H](N)C(=O)O)C1=O)C(C)C (stereo partly shown) [Example 23] (X2-V[Dil][Dolaproine]W-OH) ?
1

Requested field: Papp B→A at 2 h. Item: CC[C@H](C)[C@@H]([C@@H](CC(=O)N1CCC[C@H]1[C@H](OC)[C@@H](C)C(=O)N[C@@H](Cc1c[nH]c2ccccc12)C(N)=O)OC)N(C)C(=O)[C@@H](NC(=O)[C@H](C(C)C)N(C)CCCC(=O)NNC(=O)CCCCCN1C(=O)CC(SC[C@H](N)C(=O)O)C1=O)C(C)C (stereo partly shown)
2

What measured Papp B→A at 2 h goes with CC[C@H](C)[C@@H]([C@@H](CC(=O)N1CCC[C@H]1[C@H](OC)[C@@H](C)C(=O)N[C@@H](Cc1c[nH]c2ccccc12)C(=O)N1CCCCO1)OC)N(C)C(=O)[C@@H](NC(=O)[C@H](C(C)C)N(C)CCCCCC(=O)NCCCC[C@H](N)C(=O)O)C(C)C [Example 18, trifluoroacetate] (X1-V[Dil][Dolaproine]W-{Oxazinan2yl(1,2)}) ?
2

Value lookup for Papp B→A at 2 h; key = CC[C@H](C)[C@@H]([C@@H](CC(=O)N1CCC[C@H]1[C@H](OC)[C@@H](C)C(=O)N[C@@H](Cc1ccc(O)cc1)C(=O)O)OC)N(C)C(=O)[C@@H](NC(=O)[C@H](C(C)C)N(C)CCCCCC(=O)NCCCC[C@H](N)C(=O)O)C(C)C [Example 37, trifluoroacetate] (X1-V[Dil][Dolaproine]Y-OH)
0.9

====

Assay: Flux assay using Caco-2 cells (cell permeability)
Type: in vitro ADME
Settings: human, 2 hours incubation
Counter-ions that a name gives are not always drawn. Where a SMILES comes first, the peptide text is derived from it. [ ]: non-standard residue; d: D form. The star is where a group is joined. X1 = CC(C)[C@@H](C(=O)*)N(C)CCCCCC(=O)NCCCC[C@H](N)C(=O)O; Dolaproine = CO[C@@H]([C@@H]1CCCN1)[C@@H](C)C(=O)O; Dil = CC[C@H](C)[C@H](NC)[C@@H](CC(=O)O)OC; Oxazinan2yl(1,2) = C1CCN(*)OC1
For each record, write down the corresponding Papp B→A at 2 h.
A complete answer gives the number followed by the unit.

Which Papp B→A at 2 h is reported for this molecule? CC[C@H](C)[C@@H]([C@@H](CC(=O)N1CCC[C@H]1[C@H](OC)[C@@H](C)C(=O)N[C@@H](Cc1c[nH]c2ccccc12)C(=O)O)OC)N(C)C(=O)[C@@H](NC(=O)[C@H](C(C)C)N(C)CCCCCC(=O)NCCCC[C@H](N)C(=O)O)C(C)C [Example 19] (X1-V[Dil][Dolaproine]W-OH)
0.1 ×10⁻⁶ cm/s

Look up Papp B→A at 2 h for this molecule: CC[C@H](C)[C@@H]([C@@H](CC(=O)N1CCC[C@H]1[C@H](OC)[C@@H](C)C(=O)N[C@@H](Cc1c[nH]c2ccccc12)C(=O)O)OC)N(C)C(=O)[C@@H](NC(=O)[C@H](C(C)C)N(C)CCCC(=O)NNC(=O)CCCCCN1C(=O)CC(SC[C@H](N)C(=O)O)C1=O)C(C)C (stereo partly drawn)
0.2 ×10⁻⁶ cm/s

What value of Papp B→A at 2 h has been recorded for this entry: CC[C@H](C)[C@@H]([C@@H](CC(=O)N1CCC[C@H]1[C@H](OC)[C@@H](C)C(=O)N[C@@H](Cc1ccc(O)cc1)C(=O)N1CCCCO1)OC)N(C)C(=O)[C@@H](NC(=O)[C@H](C(C)C)N(C)CCCCCC(=O)NCCCC[C@H](N)C(=O)O)C(C)C [Example 36, trifluoroacetate] (X1-V[Dil][Dolaproine]Y-{Oxazinan2yl(1,2)})
0.15 ×10⁻⁶ cm/s
